biological target: T1, recombinant human CD3 epsilon/delta heterodimer (human, UniProt P07766 23-126; P04234 22-105); test: Octet BLI, mAb on FAB2G sensor, hCD3 E/D 200-50 nM; R^2 0.99
T1 construct: Recombinant protein in solution (200-50 nM) in the Octet assay; also called hCD3 E/D; human CD3E/D
T1 sequence (P07766 23-126, stated change not applied, chain 1 of 2): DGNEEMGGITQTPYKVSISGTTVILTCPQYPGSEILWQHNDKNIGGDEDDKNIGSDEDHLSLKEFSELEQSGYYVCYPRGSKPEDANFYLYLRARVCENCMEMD
T1 sequence (P04234 22-105, stated change not applied, chain 2 of 2): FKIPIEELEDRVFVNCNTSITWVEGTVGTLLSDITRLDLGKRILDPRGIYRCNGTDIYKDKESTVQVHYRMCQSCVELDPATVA
We begin with a simple list: items and their reported Kd.

binder: ABL-CD3-60 (antibody, V domains shown, Chimeric hybridoma mAb: human V, CH1, upper hinge; mouse middle hinge, CH2, CH3) VH: EVQLVESGGGLVKPGGSLRLSCAASGFTFSIYSMNWVRQAPGKGLEWVSSISSGSSYIYYADSVKGRFTISRDNAKSSLFLQMNSLRAEDTAVYYCAREKRELLFDYWGQGTLVTVSS VL: NFMLTQPHSVSESPGKTVTISCTRSSGSIASNYVQWYQQRPGSSPTTVIYEDNQRPSGVPDRFSGSIDRSSNSASLTISGLKTEDEADYYCQSYDSSNRVFGGGTKLTVL
Kd: 231 nM

Please find the next binder below.
Prompt: Quick check: Kd of ABL-CD3-5 (antibody, V domains shown, Chimeric hybridoma mAb: human V, CH1, upper hinge; mouse middle hinge, CH2, CH3) VH: EVQLVESGGGLVQPGGSLRLSCAASGFTFSRYSMNWVRQAPGKGLEWVSYISSSSSSIYYADSVKGRFTISRDNAKNSLYLQMNSLRDEDTAVYYCARDRRATLDYWGQGTLVTVSS VL: NFMLTQPHSVSESPGKTVTISCTRSSGSIASNYVQWYQQRPGSSPTTVIYEDNQRPSGVPDRFSGSIDSSSNSASLTISGLKTEDEADYYCQSYDSSNHVFGGGTKLTVL ?
Completion: 88.1 nM
